# Test system: HMC 1-8 low-A1 cells, caspase-3/7 luminescence, 3 h
# methodDescription: caspase activation in low-A1 HMC 1-8 cells, dose response, counter-screen for A1 inhibitor project, cell-based, caspase luminescence (AID 449755)
Inconclusive results are not listed. Calls of active or inactive are those of the source.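 The calls were made as follows: active = compounds raising caspase signal whose fitted AC50 is at most ten times the top tested dose; inconclusive = flat fit with 30 to 70% activity, or failed fit; inactive = the rest.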
Tick one outcome: active, inactive

Please review the following examples before continuing.
CCn1c(SCC(=O)c2ccccc2)nnc1-c1cc2cc(Br)ccc2o1	inactive
COc1ccc(OC)c(NC(=O)c2cc(-c3cc(C)ccc3O)n[nH]2)c1	inactive
O=C1/C(=C/c2ccc(N3CCOCC3)o2)SC(=Nc2ccccc2)N1CCc1c[nH]c2ccccc12	inactive
CCOC(=O)c1c(C)oc2c1c(CN1CCN(C(=O)OCC)CC1)c(O)c1ccccc12	active
Cc1nn(-c2ccccc2)c(Cl)c1CN(C(=O)CCl)c1ccc(Cl)cc1	inactive
Cc1ccc(N(Cc2cc(=O)[nH]c3ccccc23)C(=O)CCl)cc1	inactive

Okay, now this compound:
Q: Would you mind telling me which call this test gave Cc1ccc(C#N)c(SCC(=O)Nc2nccs2)n1 ?
Ans: inactive
